# interaction score listing for each entry below
Biological target: T1, O2-bP
T1 chain: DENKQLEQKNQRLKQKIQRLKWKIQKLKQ
Assay: two-hybrid library CCNG1;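 note: natural log of median RNA to DNA barcode read ratio; higher means stronger binding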

>  <binder>
DEIKQLEQENQRLEQKIQRLKWENQKLEQ [O15-bP]

>  <interaction score>
-1.39

$$$$
>  <binder>
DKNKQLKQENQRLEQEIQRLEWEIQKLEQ [O1-bP]

>  <interaction score>
1.06

$$$$
>  <binder>
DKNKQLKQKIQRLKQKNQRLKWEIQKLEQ [O13-bP]

>  <interaction score>
-1.3

$$$$
>  <binder>
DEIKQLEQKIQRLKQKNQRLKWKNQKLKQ [O12-bP]

>  <interaction score>
-1.14

$$$$
